Data provenance: ChEMBL document CHEMBL3272334

System: Staphylococcus aureus
Assay: Antibacterial activity against Staphylococcus aureus UC-76 assessed as growth inhibition by gradient plate test
Format: functional
propertyName: MIC

Consider the reported MIC for these compounds:
- lineNotation: "CC(C)N(Cc1cnc2nc(N)nc(N)c2n1)c1ccc(Cl)cc1.CN(C)C=O"
  MIC: "< 0.25 µg/mL"
- lineNotation: "CCCN(Cc1cnc2nc(N)nc(N)c2n1)c1ccc(Cl)c(Cl)c1"
  MIC: "< 0.25 µg/mL"
- lineNotation: "CN(Cc1cnc2nc(N)nc(N)c2n1)c1cccc2ccccc12"
  MIC: "1 µg/mL"
- lineNotation: "CC(C)N(Cc1cnc2nc(N)nc(N)c2n1)c1ccc(Cl)c(Cl)c1"
  MIC: "< 0.25 µg/mL"
- lineNotation: "CN(Cc1cnc2nc(N)nc(N)c2n1)c1ccc(Cl)cc1"
  MIC: "1.5 µg/mL"

For every item below, please supply its MIC.
1. CCN(Cc1cnc2nc(N)nc(N)c2n1)c1ccc(OC)cc1
2. CN(C)C=O.Nc1nc(N)c2nc(CNc3ccc(Cl)c(Cl)c3)cnc2n1
3. CCN(Cc1cnc2nc(N)nc(N)c2n1)c1ccc(Cl)cc1
4. CN(Cc1cnc2nc(N)nc(N)c2n1)c1ccc(Cl)c(Cl)c1
5. Nc1nc(N)c2nc(CN(C=O)c3ccc(Cl)c(Cl)c3)cnc2n1

# output
1. < 0.25 µg/mL
2. < 0.25 µg/mL
3. < 0.25 µg/mL
4. < 0.25 µg/mL
5. 1 µg/mL

# input Field request: MIC | item: COc1cc(N(C)Cc2cnc3nc(N)nc(N)c3n2)cc(OC)c1OC
# output < 0.25 µg/mL
